# Test system: SARS-CoV-2
# ASSAY INFO: CPE-based HTS assay (CPE reduction quantified by CCK-8 cell viability)
# CONDITION LABEL: Severe acute respiratory syndrome coronavirus 2, Vero C1008, 48 h; read-out: protection from CPE
READOUT TYPE: inhibition at 10 µM

# example entries with known answers
COMPOUND: C[C@H]1COC2=C1C(=O)C(=O)c1c2ccc2c1CCCC2(C)C
inhibition at 10 µM: > 50%
//
COMPOUND: C[C@H]1O[C@@H](O[C@H]2[C@@H](O)C[C@H](O[C@H]3[C@@H](O)C[C@H](O[C@H]4CC[C@@]5(C)[C@H](CC[C@@H]6[C@@H]5C[C@@H](O)[C@]5(C)[C@@H](C7=CC(=O)OC7)CC[C@]65O)C4)O[C@@H]3C)O[C@@H]2C)C[C@H](O)[C@@H]1O [Digoxin, reference compound]
inhibition at 10 µM: > 50%

Field: next compound
I'd like to know its inhibition at 10 µM. The compound in question is O[C@H]1[C@H]2c3cc4c(cc3CN3CCC(=C[C@@H]1O)[C@H]23)OCO4 > 50%

This collection of values is drawn from paper PMC7532339.
